# target entity: TYK2 (Homo sapiens)
# Construct: endogenous in cells
# Sequence (P29597 whole entry): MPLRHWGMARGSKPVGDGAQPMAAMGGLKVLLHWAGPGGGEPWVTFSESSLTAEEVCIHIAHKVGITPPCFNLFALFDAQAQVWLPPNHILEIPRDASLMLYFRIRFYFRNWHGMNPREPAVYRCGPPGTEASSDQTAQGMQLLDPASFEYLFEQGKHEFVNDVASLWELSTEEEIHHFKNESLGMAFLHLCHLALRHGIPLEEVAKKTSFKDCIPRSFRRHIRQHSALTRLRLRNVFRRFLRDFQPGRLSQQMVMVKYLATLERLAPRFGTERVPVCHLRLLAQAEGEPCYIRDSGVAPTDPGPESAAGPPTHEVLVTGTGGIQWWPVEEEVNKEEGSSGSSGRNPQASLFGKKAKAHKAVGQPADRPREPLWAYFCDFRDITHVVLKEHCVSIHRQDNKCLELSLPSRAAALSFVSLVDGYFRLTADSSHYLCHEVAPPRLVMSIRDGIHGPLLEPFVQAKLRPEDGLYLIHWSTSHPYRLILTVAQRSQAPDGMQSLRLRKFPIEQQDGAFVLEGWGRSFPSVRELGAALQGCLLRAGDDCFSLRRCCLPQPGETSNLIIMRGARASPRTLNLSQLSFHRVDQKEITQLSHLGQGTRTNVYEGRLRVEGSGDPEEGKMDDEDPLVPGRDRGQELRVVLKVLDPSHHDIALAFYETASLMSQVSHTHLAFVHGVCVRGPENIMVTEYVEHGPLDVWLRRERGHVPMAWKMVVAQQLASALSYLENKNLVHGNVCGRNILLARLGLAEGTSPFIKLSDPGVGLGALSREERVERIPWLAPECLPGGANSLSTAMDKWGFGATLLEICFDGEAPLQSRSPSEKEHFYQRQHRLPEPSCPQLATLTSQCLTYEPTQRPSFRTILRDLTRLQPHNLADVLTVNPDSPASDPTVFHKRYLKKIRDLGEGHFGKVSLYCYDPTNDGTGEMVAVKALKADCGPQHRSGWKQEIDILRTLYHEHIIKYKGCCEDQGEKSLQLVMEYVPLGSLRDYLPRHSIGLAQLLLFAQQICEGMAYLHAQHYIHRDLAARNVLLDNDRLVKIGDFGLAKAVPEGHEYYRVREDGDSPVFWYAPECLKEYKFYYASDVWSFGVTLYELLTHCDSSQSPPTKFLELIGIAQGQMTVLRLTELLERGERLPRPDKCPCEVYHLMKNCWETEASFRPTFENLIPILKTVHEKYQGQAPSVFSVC
# assay method text: Kinobeads assay, TYK2
# applied conditions: mixed Molt4/Ramos lysate, read-out: Inhibition values (IC50) TYK2
In this section, each of the compounds is paired with its reported IC50.

Record excerpt, results attached:
COc1cccc([C@@H](CO)Nc2nc(Nc3cnn(C(C)C)c3)ncc2Cl)c1 [Compound 106] | 1000 to 10000 nM
OCCn1cc(Nc2ncc(Cl)c(NC(CO)c3ccccc3Cl)n2)cn1 (stereo not drawn) [Compound 120] | 100 to 1000 nM
OCCn1cc(Nc2ncc(Cl)c(N[C@H](CO)c3cccnc3)n2)cn1 [Compound 92] | 100 to 1000 nM
Cn1cc(Nc2ncc(Cl)c(NC(C(=O)O)c3ccccc3)n2)cn1 (stereo not drawn) [Compound 18] | 1000 to 10000 nM
Cn1cc(Nc2ncc(Cl)c(NC(CO)c3ccccc3F)n2)cn1 (stereo not drawn) [Compound 37] | 1000 to 10000 nM
CCC(Nc1nc(Nc2cnn(C)c2)ncc1Cl)c1ccccc1F (stereo not drawn) [Compound 125] | 1000 to 10000 nM

Tell me IC50 of CNC(=O)Cn1cc(Nc2ncc(Cl)c(N[C@H](CO)c3cc(F)ccc3F)n2)cn1 [Compound 141] when tested on TYK2 (Homo sapiens).
100 to 1000 nM

Tell me IC50 of Cn1cc(Nc2ncc(F)c(N[C@H](CO)c3cc(F)cc(-c4cnn(C)c4)c3)n2)cn1 [Compound 150] when tested on TYK2 (Homo sapiens).
≥ 10000 nM

Tell me IC50 of CNC(=O)Cn1cc(Nc2ncc(F)c(N[C@H](CO)c3cc(F)ccc3F)n2)cn1 [Compound 148] when tested on TYK2 (Homo sapiens).
100 to 1000 nM
